Attribution: patent US9169254B2

Recorded cAMP production activity (%) values for a group of compounds are listed next.
- Measurement target: human PTH1 receptor (Homo sapiens, UniProt Q03431)
- Sequence (Q03431 27-593): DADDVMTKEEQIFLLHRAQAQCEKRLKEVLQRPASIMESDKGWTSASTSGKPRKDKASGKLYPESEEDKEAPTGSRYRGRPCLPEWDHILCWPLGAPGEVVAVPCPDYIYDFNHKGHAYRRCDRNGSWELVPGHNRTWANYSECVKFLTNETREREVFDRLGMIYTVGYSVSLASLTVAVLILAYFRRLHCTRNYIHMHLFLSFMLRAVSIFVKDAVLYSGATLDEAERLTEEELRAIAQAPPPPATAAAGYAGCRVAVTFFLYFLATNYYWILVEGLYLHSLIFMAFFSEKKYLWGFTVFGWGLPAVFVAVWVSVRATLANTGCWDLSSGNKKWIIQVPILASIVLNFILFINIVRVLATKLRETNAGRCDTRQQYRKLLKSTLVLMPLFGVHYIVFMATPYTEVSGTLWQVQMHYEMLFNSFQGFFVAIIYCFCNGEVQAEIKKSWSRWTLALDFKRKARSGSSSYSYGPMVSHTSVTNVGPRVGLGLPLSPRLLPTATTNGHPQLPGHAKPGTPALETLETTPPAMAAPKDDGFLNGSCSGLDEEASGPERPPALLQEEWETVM
- Assay overview: In vitro cAMP signal activity in HKRK-B7 cells (LLC-PK1 cells overexpressing the human PTH1 receptor)
- Type: cell-based
- Particulars: HKRK-B7 cells; compound at 1×10^−3 M; cAMP produced as percentage of that produced by hPTH(1-34) at 100 nM

INSERT INTO assay_data (compound, value_kind, measured) VALUES
  ('Cc1cc(N(C)C(N)=O)cc(C)c1/C=C/S(=O)(=O)N1CCC2(CC1)N=C(CCCCCCCCCC(N)=O)NC2=O [Compound 1172]', 'cAMP production activity (%)', '73%'),
  ('O=C(c1ccc(Cl)cc1)N1CCCC(C2=NC3(CCN(S(=O)(=O)c4cccc(Cl)c4)CC3)C(=O)N2)C1 (stereo not drawn) [Compound 425]', 'cAMP production activity (%)', '17%'),
  ('Cc1cc(CN2C(=O)CCC2=O)cc(C)c1CCS(=O)(=O)N1CCC2(CC1)N=C(C1CCC(CCC(F)(F)F)CC1)NC2=O (stereo not drawn) [Compound 777]', 'cAMP production activity (%)', '71%');

Respond only with cAMP production activity (%) recorded for CCCC[C@]1(F)CC[C@@H](C2=NC3(CCN(S(=O)(=O)CCc4ccc(NC(C)=O)cc4C)CC3)C(=O)N2)CC1 [Compound 1062]
65%

Answer with the recorded cAMP production activity (%) of Cc1cc(C(=O)N2CCN(S(=O)(=O)N(C)C)CC2)ccc1CCS(=O)(=O)N1CCC2(CC1)N=C(c1cccc(C(F)(F)F)c1)NC2=O [Compound 360] only.
62%

State its cAMP production activity (%): CCC1CCC(C2=NC3(CCN(S(=O)(=O)CCc4ccc(C(=O)N5CCN(CCF)CC5)cc4C)CC3)C(=O)N2)CC1 (stereo not drawn) [Compound 975]
74%
